# TARGET_UNDER_TEST: T1, monomeric soluble human PD1-Avi-His (human, UniProt Q15116 25-170)
# T1 construct: extracellular domain; not shown: Avi tag and His tag at the C-terminus
# ASSAY_NOTES: SPR (BIACORE T200), antibody captured on anti-human IgG, monomeric PD1-Avi-His flowed, 1:1 fit
METRIC_NAME: pKd
Give bare numbers, as −log10 of the molar value.

[[record]]
binder = "APE1923 (antibody, human IgG1, V domains shown, expressed from HEK 293 cells as human IgG1) VH: EVQLLESGGGLVQPGGSLRLSCAASGFTFSSYTMSWVRQAPGKGLEWVSVISSGGNSAYYPDSVQGRFTISRDNSKNTLYLQMNSLRAEDTAVYYCAKEHYGTSHFAYWGQGTLVTVSS VL: EIVLTQSPATLSLSPGERATLSCRASESVDNFGISFMSWYQQKPGQAPRLLIYAASNPGSGIPARFSGSGSGTDFTLTISSLEPEDFAVYYCQQSKEVPYTFGQGTKLEIK"
metric_name = "pKd"
observed_result = 8.05

[[record]]
binder = "APE1950 (antibody, human IgG1, V domains shown, expressed from HEK 293 cells as human IgG1) VH: EVQLLESGGGLVQPGGSLRLSCAASGFTFSSYTMSWVRQAPGKGLEWVSVISSGGDSTYYPDSVQGRFTISRDNSKNTLYLQMNSLRAEDTAVYYCAKEHYGTSHFAYWGQGTLVTVSS VL: EIVLTQSPATLSLSPGERATLSCRASESVDNFGISFMSWYQQKPGQAPRLLIYAASNPGSGIPARFSGSGSGTDFTLTISSLEPEDFAVYYCQQSKEVPYTFGQGTKLEIK"
metric_name = "pKd"
observed_result = 7.77


Let's switch to this binder now.
Sure, the documented pKd for APE2058 (antibody, human IgG1, V domains shown, expressed from HEK 293 cells as human IgG1; also called anti-PD-1) VH: EVQLLESGGGLVQPGGSLRLSCAASGFTFSSYDMSWVRQAPGKGLEWVSTISGGGSYTYYQDSVKGRFTISRDNSKNTLYLQMNSLRAEDTAVYYCASPYYAMDYWGQGTTVTVSS VL: DIQLTQSPSFLSAYVGDRVTITCKASQDVGTAVAWYQQKPGKAPKLLIYWASTLHTGVPSRFSGSGSGTEFTLTISSLQPEDFATYYCQHYSSYPWTFGQGTKLEIK is 8.70
